molecules and their reported inhibition
- assay procedure: inhibitors of T. brucei MetRS aminoacylation, late-stage follow-up, biochemical, radioactivity, round 1 (AID 743060)
- details: purified enzyme, radiolabel aminoacylation, scintillation, 2 h; at 1 µM; stronger effect = higher value

[
  {
    "molecule": "O=C(NCc1nc2ccccc2[nH]1)C1=C[C@@H](c2ccccc2)C[C@@H](OCc2ccc(CO)cc2)O1",
    "inhibition, %": 44.6
  },
  {
    "molecule": "Clc1ccc(-c2nnc(SCc3nc4ccccc4[nH]3)o2)c(Cl)c1",
    "inhibition, %": 75.3
  },
  {
    "molecule": "O=C(N/C(=C\\c1cccnc1)c1nc2ccccc2[nH]1)c1cccc(Br)c1",
    "inhibition, %": 14.4
  },
  {
    "molecule": "Clc1ccc(OCCSCc2nc3ccccc3[nH]2)cc1",
    "inhibition, %": -2.58
  },
  {
    "molecule": "O=C(Cn1cc(C(=O)c2ccco2)c2ccccc21)Nc1cccc(C(F)(F)F)c1",
    "inhibition, %": 45.2
  },
  {
    "molecule": "O=C(NCc1nc2ccccc2[nH]1)C1=C[C@H](c2csc3ccccc23)C[C@H](OCCCCO)O1",
    "inhibition, %": 71.1
  },
  {
    "molecule": "CCO[C@H]1OC(C(=O)NCc2nc3ccccc3[nH]2)=C[C@@H](c2ccc(Br)cc2)[C@@H]1CCCO",
    "inhibition, %": 0.88
  },
  {
    "molecule": "Cc1ccc(NC(=O)CN(C)C(=O)CCSc2ccc(F)cc2)cc1",
    "inhibition, %": -1.05
  },
  {
    "molecule": "O=C(NCc1nc2ccccc2[nH]1)C1=C[C@@H](c2ccc(Br)cc2)C[C@@H](OCCCCO)O1",
    "inhibition, %": 84.2
  },
  {
    "molecule": "COc1ccc(OCC(O)CNC(=O)Nc2ccc(Cl)cc2)cc1 (stereo not drawn)",
    "inhibition, %": 28.9
  },
  {
    "molecule": "O=C(Cn1cc(C(=O)C2CC2)c2ccccc21)Nc1cccc(C(F)(F)F)c1",
    "inhibition, %": 3.65
  },
  {
    "molecule": "O=C(NCCc1nc2ccccc2[nH]1)c1ccc(Cl)cc1Cl",
    "inhibition, %": 61.9
  },
  {
    "molecule": "O=C(Cn1cc(C(=O)COc2ccccc2)c2ccccc21)Nc1cccc(C(F)(F)F)c1",
    "inhibition, %": -5.73
  }
]
